ASSAY_INFO: Metabolic stability in human plasma assessed as compound remaining at 10 uM after 4 hrs by LC-QTOF-MS analysis
Format: ADME, cell-free
CONDITION_SUMMARY: read-out: Stability

[
  {
    "MOLECULE_SMILES": "CCC(CC)COC(=O)[C@@H](C)N[P@](=O)(OC[C@H]1O[C@@](C#N)(c2ccc3c(N)ncnn23)[C@H](O)[C@@H]1OC(=O)CCCCCCCCCCCN=[N+]=[N-])Oc1ccccc1",
    "UNIT_TAG": "%",
    "remaining at 4 h, 10 µM": 77.9
  }
]

====

# Lookup of reported CC50 keyed by entry
Test system: Huh-7
ASSAY_INFO: Cytotoxicity against human Huh-7 cells assessed as reduction in cell viability measured after 24 hrs by CellTiter-Glo analysis
Type: cell-based
CONDITION_SUMMARY: huh-7, 24 h

[
  {
    "COMPOUND": "CCCCCCCCCCCCCC(=O)O[C@H]1[C@@H](O)[C@](C#N)(c2ccc3c(N)ncnn23)O[C@@H]1CO[P@@](=O)(N[C@H](C)C(=O)OCC(CC)CC)Oc1ccccc1",
    "CC50": "> 50 µM"
  },
  {
    "COMPOUND": "CCCCCCCCCCCCCC(=O)O [MYRISTIC ACID]",
    "CC50": "> 50 µM"
  },
  {
    "COMPOUND": "CCC(CC)COC(=O)[C@@H](C)N[P@](=O)(OC[C@H]1O[C@@](C#N)(c2ccc3c(N)ncnn23)[C@H](O)[C@@H]1OC(=O)CCCCCCCCCCCN=[N+]=[N-])Oc1ccccc1",
    "CC50": "20 µM"
  },
  {
    "COMPOUND": "CCSCCCCCCCCCCCC(=O)O[C@H]1[C@@H](O)[C@](C#N)(c2ccc3c(N)ncnn23)O[C@@H]1CO[P@@](=O)(N[C@H](C)C(=O)OCC(CC)CC)Oc1ccccc1",
    "CC50": "23 µM"
  },
  {
    "COMPOUND": "CCSCCCCCCCCCCCC(=O)O[C@@H]1[C@H](O)[C@@H](CO[P@@](=O)(N[C@H](C)C(=O)OCC(CC)CC)Oc2ccccc2)O[C@@]1(C#N)c1ccc2c(N)ncnn12",
    "CC50": "41 µM"
  },
  {
    "COMPOUND": "CCCCCCCCCCCCCCCC(=O)O[C@H]1[C@@H](O)[C@](C#N)(c2ccc3c(N)ncnn23)O[C@@H]1CO[P@@](=O)(N[C@H](C)C(=O)OCC(CC)CC)Oc1ccccc1",
    "CC50": "> 50 µM"
  },
  {
    "COMPOUND": "CCCCCCCCCCCCCC(=O)O[C@@H]1[C@H](O)[C@@H](CO[P@@](=O)(N[C@H](C)C(=O)OCC(CC)CC)Oc2ccccc2)O[C@@]1(C#N)c1ccc2c(N)ncnn12",
    "CC50": "> 50 µM"
  },
  {
    "COMPOUND": "CCCCCCCCCCOCCC(=O)O[C@H]1[C@@H](O)[C@](C#N)(c2ccc3c(N)ncnn23)O[C@@H]1CO[P@@](=O)(N[C@H](C)C(=O)OCC(CC)CC)Oc1ccccc1",
    "CC50": "7.4 µM"
  },
  {
    "COMPOUND": "CCCCCCCCCCCCCC(=O)O[C@H]1[C@@H](OC(=O)CCCCCCCCCCCCC)[C@](C#N)(c2ccc3c(N)ncnn23)O[C@@H]1CO[P@@](=O)(N[C@H](C)C(=O)OCC(CC)CC)Oc1ccccc1",
    "CC50": "> 50 µM"
  },
  {
    "COMPOUND": "[N-]=[N+]=NCCCCCCCCCCCC(=O)O",
    "CC50": "> 50 µM"
  },
  {
    "COMPOUND": "CCCCCCCCCCOCCC(=O)O[C@@H]1[C@H](O)[C@@H](CO[P@@](=O)(N[C@H](C)C(=O)OCC(CC)CC)Oc2ccccc2)O[C@@]1(C#N)c1ccc2c(N)ncnn12",
    "CC50": "15 µM"
  },
  {
    "COMPOUND": "CCCCCCCCCCCCCCCC(=O)O[C@@H]1[C@H](O)[C@@H](CO[P@@](=O)(N[C@H](C)C(=O)OCC(CC)CC)Oc2ccccc2)O[C@@]1(C#N)c1ccc2c(N)ncnn12",
    "CC50": "> 50 µM"
  },
  {
    "COMPOUND": "CCCCCCCCCCOCCC(=O)O",
    "CC50": "> 50 µM"
  },
  {
    "COMPOUND": "CCSCCCCCCCCCCCC(=O)O",
    "CC50": "> 50 µM"
  }
]
